Each entry below carries its reported DC50.
Biological target: SMARCA2-HiBiT HeLa cells (protein which is expressed from the SMARCA2 gene) (Homo sapiens, UniProt P51531)
Construct: protein which is expressed from the SMARCA2 and SMARCA4 genes; host or cells: HeLa (SMARCA2-HiBiT engineered line)
Sequence (P51531 whole entry): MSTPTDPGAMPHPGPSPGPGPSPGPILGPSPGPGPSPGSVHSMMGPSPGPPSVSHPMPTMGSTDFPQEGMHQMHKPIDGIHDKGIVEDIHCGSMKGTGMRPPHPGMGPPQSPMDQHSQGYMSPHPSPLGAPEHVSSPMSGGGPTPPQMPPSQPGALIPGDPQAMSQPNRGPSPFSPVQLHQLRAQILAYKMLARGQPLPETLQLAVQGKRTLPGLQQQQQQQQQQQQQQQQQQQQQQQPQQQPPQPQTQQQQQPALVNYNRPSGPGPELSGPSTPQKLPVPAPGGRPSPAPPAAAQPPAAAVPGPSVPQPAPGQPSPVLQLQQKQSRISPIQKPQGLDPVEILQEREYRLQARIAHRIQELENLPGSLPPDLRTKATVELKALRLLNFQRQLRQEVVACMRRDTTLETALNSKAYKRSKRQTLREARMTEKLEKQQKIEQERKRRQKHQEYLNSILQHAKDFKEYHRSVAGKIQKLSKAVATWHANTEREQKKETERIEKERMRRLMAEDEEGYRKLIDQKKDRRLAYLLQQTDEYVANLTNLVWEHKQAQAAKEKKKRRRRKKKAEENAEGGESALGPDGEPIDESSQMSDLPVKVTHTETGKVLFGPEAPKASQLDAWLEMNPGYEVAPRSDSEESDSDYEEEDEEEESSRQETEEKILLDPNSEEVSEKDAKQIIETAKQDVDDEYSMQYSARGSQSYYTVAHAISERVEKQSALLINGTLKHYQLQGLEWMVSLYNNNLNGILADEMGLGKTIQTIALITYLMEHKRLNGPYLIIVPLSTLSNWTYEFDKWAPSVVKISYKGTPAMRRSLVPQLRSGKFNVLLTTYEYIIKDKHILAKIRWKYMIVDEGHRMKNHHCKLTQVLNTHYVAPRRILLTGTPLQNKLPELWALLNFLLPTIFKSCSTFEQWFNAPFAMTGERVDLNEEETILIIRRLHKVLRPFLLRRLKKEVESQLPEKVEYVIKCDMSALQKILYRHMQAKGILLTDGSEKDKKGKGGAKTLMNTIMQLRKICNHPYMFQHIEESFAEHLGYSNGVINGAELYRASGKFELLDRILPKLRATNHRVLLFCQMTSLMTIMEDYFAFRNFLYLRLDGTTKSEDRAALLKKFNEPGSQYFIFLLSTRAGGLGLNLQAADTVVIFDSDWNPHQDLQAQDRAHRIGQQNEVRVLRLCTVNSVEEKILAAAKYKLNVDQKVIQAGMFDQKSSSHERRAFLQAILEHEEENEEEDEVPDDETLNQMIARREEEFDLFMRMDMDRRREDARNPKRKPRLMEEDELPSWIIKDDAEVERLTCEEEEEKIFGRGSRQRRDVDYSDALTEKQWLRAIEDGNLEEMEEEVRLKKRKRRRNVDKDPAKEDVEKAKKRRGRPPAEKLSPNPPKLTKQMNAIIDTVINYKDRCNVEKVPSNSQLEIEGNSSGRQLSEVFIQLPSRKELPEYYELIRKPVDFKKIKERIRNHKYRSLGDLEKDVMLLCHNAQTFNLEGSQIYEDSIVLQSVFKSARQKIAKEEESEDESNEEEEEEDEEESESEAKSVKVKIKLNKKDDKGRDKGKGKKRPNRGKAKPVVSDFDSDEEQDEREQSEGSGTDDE
Assay: SMARCA2 degradation assay (HiBiT-fusion HeLa cell line, 24 h, luminescence)
Format: cell-based
Description: SMARCA2 and SMARCA4 Degradation Assay Degradation of protein which is expressed from the SMARCA2 and SMARCA4 genes was monitored using engineered HiBiT-fusion HeLa cell lines from Promega. […] 24-hours post-treatment, protein levels were quantified with the addition of HiBiT lytic buffer, LgBiT protein, and HiBiT substrate, according to manufacturer's specifications. […]

C[C@@H]1CCN(c2cc(-c3ccccc3O)nnc2N)CCN1c1ccnc(C#CCN2CC3(COC3)C2)n1 = 50 to 500 nM
C[C@@H]1CCN(c2cc(-c3ccccc3O)nnc2N)CCN1c1ccnc(C#CC2CC2)c1 = 50 to 500 nM
C[C@@H]1CCN(c2cc(-c3ccccc3O)nnc2N)CCN1c1ccnc(C#CCN2C3CCCC2CC3)n1 = < 50 nM
Nc1nnc(-c2ccccc2O)cc1N1CCCN(c2ccnc(C#CCN3C(=O)c4ccccc4C3=O)n2)CC1 = 50 to 500 nM
C[C@H]1COC[C@H](C)N1CC#Cc1nccc(N2CCCN(c3cc(-c4ccccc4O)nnc3N)CC2)n1 = 50 to 500 nM

With those in mind, consider the next compound.
The recorded DC50 for "CC(=O)NCC#Cc1nccc(N2CCN(c3cc(-c4ccccc4O)nnc3N)CC2)n1" is 50 to 500 nM

---

Target: SMARCA2-HiBiT HeLa cells (protein which is expressed from the SMARCA2 gene) (Homo sapiens)
Construct: protein which is expressed from the SMARCA2 and SMARCA4 genes; host or cells: HeLa (SMARCA2-HiBiT engineered line)
Experiment: SMARCA2 degradation assay (HiBiT-fusion HeLa cell line, 24 h, luminescence)
Format: cell-based
MEASURE NAME: DC50

Cn1ccc(NCC#Cc2nccc(N3CCCN(c4cc(-c5ccccc5O)nnc4N)CC3)n2)n1 = 50 to 500 nM

Sample "CSCC#Cc1nccc(N2CCCN(c3cc(-c4ccccc4O)nnc3N)CC2)n1" ; DC50 observed: 50 to 500 nM

response.value for "C[C@@H]1CCN(c2cc(-c3ccccc3O)nnc2N)CCN1c1ccnc(C#CC2CN(C)C2)n1" (field: DC50) = < 50 nM

Lookup result for "C[C@H]1CN(c2ccnc(C#CCNC(=O)c3cc4ncccn4n3)n2)CCN1c1cc(-c2ccccc2O)nnc1N" ; measured DC50: 50 to 500 nM

---

Target: SMARCA2-HiBiT HeLa cells (protein which is expressed from the SMARCA2 gene) (Homo sapiens)
Construct: protein which is expressed from the SMARCA2 and SMARCA4 genes; host or cells: HeLa (SMARCA2-HiBiT engineered line)
Experiment: SMARCA2 degradation assay (HiBiT-fusion HeLa cell line, 24 h, luminescence)
Type: cell-based
Listed here: items and their measured DC50.

These solved cases illustrate the format of a correct answer.
N#Cc1ccc(N2C3CCC2CN(c2cnnc(-c4ccccc4O)c2)C3)nc1C#CCN1CC(F)(F)C1 = 500 to 5000 nM
C[C@@H]1CCN(c2cc(-c3ccccc3O)nnc2N)CCN1c1ccnc(C#CCN2CC(F)(F)[C@@H]2C)n1 = 50 to 500 nM
Nc1nnc(-c2ccccc2O)cc1N1CCCN(c2ccnc(C#CCn3cnc4ccccc43)n2)CC1 = 50 to 500 nM

Now turn to the next compound.
Summary for this compound, "C[C@@H]1CCN(c2cc(-c3ccccc3O)nnc2N)CCN1c1ccc(C#N)c(C#CCn2ccnc2)n1" : DC50 is 50 to 500 nM
